# assay_notes: Compound was evaluated for lethal dose after intravenous administration
# Format: toxicity, organism-based
# condition_parameters: mouse, in vivo
Threshold 0.3 mg/kg: LD50 strictly smaller gives class 1, otherwise class 0.

Check out these entries, answers already filled in.
>>> label_class("CCCCCCCCCCCCCC(=O)O[C@H](CCCCCCCCCCC)CC(=O)O[C@H]1[C@H](O)[C@H](CO)O[C@H](CC(=O)O)[C@@H]1NC(=O)C[C@H](O)CCCCCCCCCCC (stereo in doubt; 17b)")
"class 1"
>>> label_class("CCCCCCCCCCC[C@@H](O)CC(=O)NC1C(OP(=O)(O)O)OC(CO)C(OC(=O)C[C@H](O)CCCCCCCCCCC)C1OC(=O)C[C@H](O)CCCCCCCCCCC (stereo partly specified)")
"class 0"
>>> label_class("CCCCCCCCCCC[C@@H](O)CC(=O)NC1C(OCC2OC(OP(=O)(O)O)C(NC(=O)C[C@H](O)CCCCCCCCCCC)C(OC(=O)C[C@H](O)CCCCCCCCCCC)C2O)OC(CO)C(O)C1OC(=O)C[C@H](O)CCCCCCCCCCC (stereo partly specified)")
"class 0"

For the next question, use this compound.
Below 0.3 mg/kg on LD50? Entry CCCCCCCCCCC[C@@H](O)CC(=O)NC1C(CC(=O)O)OC(CO)C(OC(=O)C[C@H](O)CCCCCCCCCCC)C1OC(=O)C[C@H](O)CCCCCCCCCCC (stereo partly specified)
class 0
